This collection of values is drawn from the supplement of paper PMC3334620.

- Target Of Assay: Sut1 (UniProt P53032)
- Sequence: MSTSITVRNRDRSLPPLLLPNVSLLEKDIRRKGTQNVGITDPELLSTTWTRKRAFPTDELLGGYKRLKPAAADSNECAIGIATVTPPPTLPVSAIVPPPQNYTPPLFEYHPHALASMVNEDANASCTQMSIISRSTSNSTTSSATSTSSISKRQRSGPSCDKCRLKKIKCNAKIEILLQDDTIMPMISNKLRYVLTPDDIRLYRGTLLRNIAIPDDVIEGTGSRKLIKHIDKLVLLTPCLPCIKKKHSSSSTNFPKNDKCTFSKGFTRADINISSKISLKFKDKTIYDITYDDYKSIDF
- Procedure Text: PBM E-score (8-mer binding enrichment) (E-score (-0.5 to 0.5)); higher = stronger / more preferred TF binding
- Condition Description: protein concentration: 200 nM; construct: GST-full length
The full ranking holds about 33,000 sequences; the median of “E-score (-0.5 to 0.5)” is about -0.017, and the highest 2% start at about 0.3. Shown is part of a subset that was picked to be rich in the highest values.
Value Kind: PBM E-score
I only need the number, thanks.

Example entries and their recorded answers appear below.
Sequence Text: CTGCAAGA
Target Of Assay: Sut1 (UniProt P53032)
Value Kind: PBM E-score
Result Value: -0.136
--
Sequence Text: CTCCTCCA
Target Of Assay: Sut1 (UniProt P53032)
Value Kind: PBM E-score
Result Value: -0.147
--
Sequence Text: AGGTCCGG
Target Of Assay: Sut1 (UniProt P53032)
Value Kind: PBM E-score
Result Value: 0.461
--
Sequence Text: AGAGCGGA
Target Of Assay: Sut1 (UniProt P53032)
Value Kind: PBM E-score
Result Value: 0.318
--
Sequence Text: ATTGAAAT
Target Of Assay: Sut1 (UniProt P53032)
Value Kind: PBM E-score
Result Value: 0.311
--
Sequence Text: AGGTCCGA
Target Of Assay: Sut1 (UniProt P53032)
Value Kind: PBM E-score
Result Value: 0.457

Q: Quick one: PBM E-score for `ATTGAAAC` ?
A: 0.184

Q: Quick one: PBM E-score for `AGAGCGGC` ?
A: -0.125

Q: Quick one: PBM E-score for `AGAGCGGG` ?
A: -0.0998

====

- Target Of Assay: Sut1 (UniProt P53032)
- Sequence: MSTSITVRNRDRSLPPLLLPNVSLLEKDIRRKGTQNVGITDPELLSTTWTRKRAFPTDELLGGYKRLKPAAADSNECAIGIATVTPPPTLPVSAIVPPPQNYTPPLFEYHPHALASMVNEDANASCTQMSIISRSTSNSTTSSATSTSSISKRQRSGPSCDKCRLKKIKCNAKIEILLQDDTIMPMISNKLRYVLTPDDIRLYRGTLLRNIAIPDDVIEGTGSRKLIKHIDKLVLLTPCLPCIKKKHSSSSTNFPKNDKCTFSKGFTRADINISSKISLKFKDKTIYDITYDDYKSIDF
- Procedure Text: PBM E-score (8-mer binding enrichment) (E-score (-0.5 to 0.5)); higher = stronger / more preferred TF binding
- Condition Description: protein concentration: 200 nM; construct: GST-full length
The full ranking holds about 33,000 sequences; the median of “E-score (-0.5 to 0.5)” is about -0.017, and the highest 2% start at about 0.3. The entries come from a sample that favours the highest values as a whole.
Tick Fulfilled if PBM E-score is -0.02 or greater. Tick Not fulfilled if PBM E-score is less than -0.02.

Q: For this sequence, is measured PBM E-score -0.02 or higher? `GTTTAACA`
A: Fulfilled

Q: For this sequence, is measured PBM E-score -0.02 or higher? `CCGCGAAC`
A: Fulfilled

Q: For this sequence, is measured PBM E-score -0.02 or higher? `GAGTCGGA`
A: Fulfilled

Q: For this sequence, is measured PBM E-score -0.02 or higher? `AGGTCGGC`
A: Not fulfilled

Q: For this sequence, is measured PBM E-score -0.02 or higher? `ACTCCTAG`
A: Not fulfilled

Q: For this sequence, is measured PBM E-score -0.02 or higher? `CTCTGGTC`
A: Fulfilled

Q: For this sequence, is measured PBM E-score -0.02 or higher? `GATATATA`
A: Fulfilled

Q: For this sequence, is measured PBM E-score -0.02 or higher? `TATAACAA`
A: Fulfilled

====

- Target Of Assay: Sut1 (UniProt P53032)
- Sequence: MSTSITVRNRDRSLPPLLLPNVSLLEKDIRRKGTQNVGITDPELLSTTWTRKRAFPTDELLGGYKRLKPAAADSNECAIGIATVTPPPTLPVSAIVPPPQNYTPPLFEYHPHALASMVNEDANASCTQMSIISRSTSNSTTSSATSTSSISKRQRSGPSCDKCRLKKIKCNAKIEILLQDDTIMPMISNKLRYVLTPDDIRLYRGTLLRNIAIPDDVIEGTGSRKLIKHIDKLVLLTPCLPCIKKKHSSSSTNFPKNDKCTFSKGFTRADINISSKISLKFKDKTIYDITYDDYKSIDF
- Procedure Text: PBM E-score (8-mer binding enrichment) (E-score (-0.5 to 0.5)); higher = stronger / more preferred TF binding
- Condition Description: protein concentration: 200 nM; construct: GST-full length
Over roughly 33,000 sequences, “E-score (-0.5 to 0.5)” has its median near -0.017; the highest 2% begin near 0.3. What follows is part of a selection rich in the highest values, with near analogues and random picks from the rest.
Tick label 1 if PBM E-score is 0.05 or greater. Tick label 0 if PBM E-score is less than 0.05.

Solved cases (5 shown):
Sequence Text: GGGAATTA
Discrete Label: label 1
--
Sequence Text: AGGAATTC
Discrete Label: label 0
--
Sequence Text: GATCAAAC
Discrete Label: label 0
--
Sequence Text: ATTCGGCG
Discrete Label: label 0
--
Sequence Text: ATCCGTAA
Discrete Label: label 1

Continue with the sequence presented below.
Q: For this sequence, is measured PBM E-score 0.05 or higher? `AATTGGAT`
A: label 1

====

Collected PBM E-score values appear next to each entry.
- Target Of Assay: Sut1 (UniProt P53032)
- Sequence: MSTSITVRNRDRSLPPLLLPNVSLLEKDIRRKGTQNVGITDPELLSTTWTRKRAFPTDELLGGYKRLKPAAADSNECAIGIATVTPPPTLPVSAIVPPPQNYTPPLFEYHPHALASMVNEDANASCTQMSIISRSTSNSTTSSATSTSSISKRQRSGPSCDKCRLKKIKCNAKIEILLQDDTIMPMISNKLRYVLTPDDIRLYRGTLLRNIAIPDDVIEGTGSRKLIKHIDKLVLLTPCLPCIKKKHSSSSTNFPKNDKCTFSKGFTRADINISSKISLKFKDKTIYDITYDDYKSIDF
- Procedure Text: PBM E-score (8-mer binding enrichment) (E-score (-0.5 to 0.5)); higher = stronger / more preferred TF binding
- Condition Description: protein concentration: 200 nM; construct: GST-full length
In all, about 33,000 sequences were measured (“E-score (-0.5 to 0.5)”: median about -0.017, highest 2% from about 0.3 on). What follows is part of a selection rich in the highest values, with near analogues and random picks from the rest.

Example entries and their recorded answers appear below.
Sequence Text: CTCGGATC
PBM E-score: 0.204
//
Sequence Text: CAATCTCC
PBM E-score: 0.312
//
Sequence Text: CGATGTCC
PBM E-score: 0.164
//
Sequence Text: AAGCATAC
PBM E-score: 0.164
//
Sequence Text: CGGAGACC
PBM E-score: 0.315
//
Sequence Text: CATATGCG
PBM E-score: -0.0808
//
Sequence Text: CACTCGGA
PBM E-score: 0.266
//
Sequence Text: ATCCGAAA
PBM E-score: 0.272

Q: Quick one: PBM E-score for `AATTCCCA` ?
A: 0.0113

Q: Quick one: PBM E-score for `ATTTATCC` ?
A: 0.33

Q: Quick one: PBM E-score for `ACTGCTCC` ?
A: -0.0101

Q: Quick one: PBM E-score for `GAAGTCTA` ?
A: 0.0111

Q: Quick one: PBM E-score for `GAAGCTCC` ?
A: 0.35

====

- Target Of Assay: Sut1 (UniProt P53032)
- Sequence: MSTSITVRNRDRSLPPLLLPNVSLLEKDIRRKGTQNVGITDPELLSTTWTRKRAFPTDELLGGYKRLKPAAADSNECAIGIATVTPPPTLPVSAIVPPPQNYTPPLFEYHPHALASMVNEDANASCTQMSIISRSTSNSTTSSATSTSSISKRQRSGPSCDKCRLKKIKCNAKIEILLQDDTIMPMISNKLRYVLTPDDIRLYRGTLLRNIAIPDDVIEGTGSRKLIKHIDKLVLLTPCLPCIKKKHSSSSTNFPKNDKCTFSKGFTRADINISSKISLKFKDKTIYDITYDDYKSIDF
- Procedure Text: PBM E-score (8-mer binding enrichment) (E-score (-0.5 to 0.5)); higher = stronger / more preferred TF binding
- Condition Description: protein concentration: 200 nM; construct: GST-full length
Whole data set: some 33,000 sequences, median “E-score (-0.5 to 0.5)” near -0.017, cut for the highest 2% near 0.3. For the sample, the highest values were picked, then their nearest neighbours and some sequences at random.
Collected PBM E-score values appear next to each entry.
I only need the number, thanks.

Sequence Text: TACCGGTA
PBM E-score: 0.0972
//
Sequence Text: GTTGTTGA
PBM E-score: 0.0996
//
Sequence Text: GCACCGTA
PBM E-score: 0.0972

Q: GET /values?readout=PBM E-score&system=Sut1 (UniProt P53032)&item= `TAGGTACA`
A: -0.0499
